experimental_system: T1, rat/human hybrid NPY Y5 receptor (rat/human chimera)
T1 chain: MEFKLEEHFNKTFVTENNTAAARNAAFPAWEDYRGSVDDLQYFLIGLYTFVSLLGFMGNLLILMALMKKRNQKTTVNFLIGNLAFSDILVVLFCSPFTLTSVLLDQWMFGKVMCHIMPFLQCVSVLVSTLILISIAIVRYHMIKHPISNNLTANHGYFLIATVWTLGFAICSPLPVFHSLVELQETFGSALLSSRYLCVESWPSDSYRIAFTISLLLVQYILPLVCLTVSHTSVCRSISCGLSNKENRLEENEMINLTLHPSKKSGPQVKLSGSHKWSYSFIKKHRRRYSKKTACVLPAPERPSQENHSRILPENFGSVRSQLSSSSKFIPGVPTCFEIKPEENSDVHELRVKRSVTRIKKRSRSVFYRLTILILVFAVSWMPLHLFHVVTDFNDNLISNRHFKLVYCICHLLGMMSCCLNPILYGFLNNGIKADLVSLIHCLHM
assay_overview: competition with 0.1 nM [125I]PYY, membranes of COS1 cells transiently expressing the receptor
endpoint: Ki (nM)

P. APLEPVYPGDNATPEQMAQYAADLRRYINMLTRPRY (ligand) [Human PP]
Q. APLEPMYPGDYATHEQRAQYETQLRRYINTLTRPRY (ligand) [Rat PP]
Could you determine which record has the numerically smaller Ki? Candidates: P and Q In your reply, give the label of the chosen option.
P
(P: 2.86 nM, Q: 75.6 nM)

// data source = patent US5985616
